# EXPERIMENTAL DETAILS: Cellular viability qHTS for adrenocortical cancer (ACC) cell line SW-13 (AID 1963989);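 also: cells grown in serum-free medium with ITS supplement; % is scaled to controls: 0 for no effect and ±100 for the full control effect; nearly all actives have a fitted effect of over 65% in size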
# TEST CONDITIONS: SW-13 ACC cells viability, CellTiter-Glo, 48 h; active compounds read low
Inconclusive results are not listed.
Task for the reader: assign each of the following compounds its reported activity (max response).
Unit % implied. Number only.

Problem: Quick one: give measured activity (max response) for CCc1cccc2c3c([nH]c12)C(CC)(CC(=O)O)OCC3 (stereo not given)
Solution: 7.18

Problem: Quick one: give measured activity (max response) for `O=C(NCCCCN1CCOCC1)c1cc2ccccc2o1`
Solution: 10.7

Problem: Quick one: give measured activity (max response) for O=C1C(=O)c2ccccc2C(O)=C1C1CCC(c2ccc(Cl)cc2)CC1 (stereo not given)
Solution: 9.49

Problem: Quick one: give measured activity (max response) for `CCCCCC=CCC=CCCCCCCCC(=O)OCC`
Solution: -4.47

Problem: Quick one: give measured activity (max response) for `COC(=O)c1c(Cl)c(Cl)c(C(=O)OC)c(Cl)c1Cl`
Solution: 12.2

Problem: Quick one: give measured activity (max response) for `Cc1cc(=O)n(-c2ccccc2)n1C`
Solution: 4.16

Problem: Quick one: give measured activity (max response) for `COc1ccc2c(OCc3nnc4ccc(-c5ccccc5)nn34)ccnc2c1`
Solution: -4.03

Problem: Quick one: give measured activity (max response) for `CN1CCN(N)CC1`
Solution: -3.26

Problem: Quick one: give measured activity (max response) for Cc1nnc(C(C)C)n1C1CC2CCC(C1)N2CCC(NC(=O)C1CCC(F)(F)CC1)c1ccccc1 (stereo not given)
Solution: -4.92

Problem: Quick one: give measured activity (max response) for `CC(=O)N[C@@H](CS)C(=O)O`
Solution: 15.1

Problem: Quick one: give measured activity (max response) for `CCOc1cc(OCC)c(C(=O)CCC(=O)O)cc1OCC`
Solution: 6

Problem: Quick one: give measured activity (max response) for `CO/N=C(\C(=O)O)c1csc(NC(=O)CCl)n1`
Solution: 13

Problem: Quick one: give measured activity (max response) for `COc1ccc(-c2cnc3c(-c4cccc5ncccc45)cnn3c2)cc1`
Solution: 5.61

Problem: Quick one: give measured activity (max response) for CC(C(=O)O)c1ccc(/C=C2\CCCCC2=O)cc1 (stereo not given)
Solution: 8.31

Problem: Quick one: give measured activity (max response) for CC(O)COc1ccccc1 (stereo not given)
Solution: 5.91

Problem: Quick one: give measured activity (max response) for `CC(C)(C)C(=O)Oc1ccc2c(c1)nc(NC(=O)c1cccc([N+](=O)[O-])c1)n2CCCO`
Solution: -24.3

Problem: Quick one: give measured activity (max response) for `O=C(O)c1ccccc1O`
Solution: 13.2

Problem: Quick one: give measured activity (max response) for `C[C@@H](O)[C@H]1C(=O)N2C(C(=O)O)=C(SCCN=CN)C[C@H]12`
Solution: -5.98

Problem: Quick one: give measured activity (max response) for `CCCCN=C(N)NC(=N)N`
Solution: 17.9

Problem: Quick one: give measured activity (max response) for `CCN(CC)CCNC(=O)c1cc(S(C)(=O)=O)ccc1OC`
Solution: 12.2

Problem: Quick one: give measured activity (max response) for `NS(=O)(=O)c1cc2c(cc1Cl)NC(CSCc1ccccc1)=NS2(=O)=O`
Solution: -2.17

Problem: Quick one: give measured activity (max response) for `CCCCCCCC(=O)[O-].CCCCCCCC(=O)[O-].[Zn+2]`
Solution: 2.96

Problem: Quick one: give measured activity (max response) for `Cc1ccc(-n2nc(C(C)(C)C)cc2NC(=O)Nc2ccc(OCCN3CCOCC3)c3ccccc23)cc1`
Solution: -16.6

Problem: Quick one: give measured activity (max response) for `C[C@H](NC(=O)[C@H]1NCC[C@@H]1O)c1ccc(-c2noc(CCC3CCCC3)n2)cc1`
Solution: -20.3

Problem: Quick one: give measured activity (max response) for `NCCO`
Solution: 7.88

###

# EXPERIMENTAL DETAILS: Viability qHTS for spleen associated tyrosine kinase inhibitor (SYKi) naive MV4-11 cells (AID 1963823); also: nearly all actives have a fitted effect of over 40% in size
# TEST CONDITIONS: MV4-11 AML viability, CellTiter-Glo luminescence, 72 h; series mostly up to 45 µM
Results filed as inconclusive are left out. Calls of active or inactive are those of the source. Calls come from the whole dose curve; as a rule, active = well fitted cell-killing curve with a large enough effect; inconclusive = small, poorly fitted or top-dose-only effect, or effect the other way; inactive = no such curve, though single readings can be large or run the other way.
One label from this list, please: active, inactive

Problem: So what was the verdict on Cc1cn(C2C[C@H](O)[C@@H](CO)O2)c(=O)[nH]c1=O (stereo partly specified) in this test?
Solution: inactive

Problem: So what was the verdict on `CC(=O)OCC(COC(C)=O)OC(C)=O` in this test?
Solution: inactive

Problem: So what was the verdict on `Nc1nc(-c2nn(Cc3ccccc3F)c3ncccc23)nc(N)c1N1CCOCC1` in this test?
Solution: inactive

Problem: So what was the verdict on `CC(C)(O)CNc1nc(Nc2ccnc(C(F)(F)F)c2)nc(-c2cccc(C(F)(F)F)n2)n1` in this test?
Solution: active

Problem: So what was the verdict on `Cc1nc2c([nH]1)CCN(C(=O)c1ccc(NC(=O)c3ccccc3-c3ccccc3)cc1)c1ccccc1-2` in this test?
Solution: active

Problem: So what was the verdict on C=C1CC[C@H]2[C@@](C)(CCC[C@@]2(C)C(=O)O)[C@@H]1CCC(C)CCO (stereo partly specified) in this test?
Solution: inactive

Problem: So what was the verdict on `CC(C)(C)NC(=O)[C@@H]1CN(Cc2cccnc2)CCN1C[C@@H](O)C[C@@H](Cc1ccccc1)C(=O)N[C@H]1c2ccccc2C[C@H]1O` in this test?
Solution: inactive

Problem: So what was the verdict on `C[C@@H](c1ncncc1F)[C@](O)(Cn1cncn1)c1ccc(F)cc1F` in this test?
Solution: inactive

Problem: So what was the verdict on CCCCC1CCC(c2nc(-c3ccncc3)no2)CC1 (stereo unspecified) in this test?
Solution: inactive

Problem: So what was the verdict on `CN1CCN(C(=O)c2ccc(-c3ccc4c(C=O)c(O)ccc4c3)s2)CC1` in this test?
Solution: active

Problem: So what was the verdict on CCc1cccc2c3c([nH]c12)C(CC)(CC(=O)O)OCC3 (stereo unspecified) in this test?
Solution: inactive

Problem: So what was the verdict on CC(=O)c1ccc2c(c1)C(O)C(C(C)(C)O)O2 (stereo unspecified) in this test?
Solution: inactive

Problem: So what was the verdict on `Cn1cc(/C=C/C(=O)c2cccc(F)c2)cc1/C=C/C(=O)NO` in this test?
Solution: active

Problem: So what was the verdict on `C=Cc1cc(O)cc2nc(-c3ccc(O)c(F)c3)oc12` in this test?
Solution: active

Problem: So what was the verdict on CC1=C(C(=O)O[C@@H]2O[C@H](COC3OCC(O)C(O)C3O)[C@@H](O)[C@H](O)[C@H]2O)C(C)(C)CCC1 (stereo partly specified) in this test?
Solution: inactive

Problem: So what was the verdict on C[C@@H]1CC[C@]2(C(=O)O)CC[C@]3(C)C(=CCC4[C@@]5(C)C[C@@H](O)[C@H](O)[C@@](C)(CO)C5CC[C@]43C)C2[C@H]1C (stereo partly specified) in this test?
Solution: inactive

Problem: So what was the verdict on `O=C(O)CCNc1cc(N2CCc3ccccc3CC2)nc(-c2ccccn2)n1` in this test?
Solution: inactive

Problem: So what was the verdict on `COC(=O)/C=C/C(=O)OC` in this test?
Solution: inactive

Problem: So what was the verdict on `OCCCc1ccccc1` in this test?
Solution: inactive

Problem: So what was the verdict on `O=C(Nc1ncc(SCCN2CCCC2)s1)[C@]1(c2ccc(S(=O)(=O)C3CC3)cc2)C[C@@H]1C1CCCCC1` in this test?
Solution: active

Problem: So what was the verdict on `O=C(Nc1ccc(N2CCC(C(=O)N3CCOCC3)CC2)cc1)c1cnc(Oc2ccccc2)nc1` in this test?
Solution: inactive

Problem: So what was the verdict on C=C1CCC(OC(C)=O)C2(C)CC3OC(=O)C(C)=C3CC12 (stereo unspecified) in this test?
Solution: inactive

Problem: So what was the verdict on `NC(=O)c1cnccn1` in this test?
Solution: inactive

Problem: So what was the verdict on `C=C1[C@H](OC(C)=O)[C@H]2[C@@H](OC(C)=O)[C@](C)(OC(C)=O)C[C@]2(OC(C)=O)C(=O)[C@H](C)/C=C/C(C)(C)C(=O)[C@H](OC(=O)C(C)C)[C@H]1OC(C)=O` in this test?
Solution: inactive

Problem: So what was the verdict on `COc1ccc(-c2nc(N3CCOCC3)c3sc(CN(C)c4ncc(C(=O)NO)cn4)cc3n2)cn1` in this test?
Solution: active

Problem: So what was the verdict on `CCCCCCCCCCCCc1ccc(S(=O)(=O)Nc2nncs2)cc1` in this test?
Solution: active

Problem: So what was the verdict on `Nc1nc(=S)c2[nH]cnc2[nH]1` in this test?
Solution: active

Problem: So what was the verdict on `CN(C)CCOc1ccc(/C(=C(/CCCl)c2ccccc2)c2ccccc2)cc1` in this test?
Solution: active

Problem: So what was the verdict on O=C(NCC(O)CO)c1c(I)c(C(=O)NCC(O)CO)c(I)c(N(CCO)C(=O)CO)c1I (stereo unspecified) in this test?
Solution: inactive

Problem: So what was the verdict on `CN(C)C(=O)COC(=O)c1cc(-c2ccc(C3CCNCC3)cc2)c2ccc(-c3ccc(C(F)(F)F)cc3)cc2c1` in this test?
Solution: active

Problem: So what was the verdict on Clc1ccc(C(Cn2ccnc2)OCc2ccsc2Cl)c(Cl)c1 (stereo unspecified) in this test?
Solution: active

Problem: So what was the verdict on `CN(C)CCNC(=O)c1cccn2c(=O)c3cc4ccccc4cc3nc12` in this test?
Solution: active

Problem: So what was the verdict on CCC(C)C(N)C(=O)NCCN1CCOCC1 (stereo unspecified) in this test?
Solution: inactive

Problem: So what was the verdict on CC(=O)CC1CCC(C(C)C(=O)OCC(O)CO)O1 (stereo unspecified) in this test?
Solution: inactive

Problem: So what was the verdict on `CCCOc1ccc(-c2nc(OC)c3ccccc3n2)cc1` in this test?
Solution: inactive

Problem: So what was the verdict on `COc1ccc2c(c1)[C@]1(C[C@H]1c1ccc3c(/C=C/c4ccc(CN5C[C@@H](C)O[C@@H](C)C5)cc4)n[nH]c3c1)C(=O)N2` in this test?
Solution: active

Problem: So what was the verdict on `Cn1cnc2c(F)c(Nc3ccc(Br)cc3F)c(C(=O)NOCCO)cc21` in this test?
Solution: active

Problem: So what was the verdict on `CC(=O)CC(=O)Nc1ccc(Cl)c(C(F)(F)F)c1` in this test?
Solution: active

Problem: So what was the verdict on O=C1CC(c2c[nH]c3ccc(F)cc23)C(=O)N1 (stereo unspecified) in this test?
Solution: inactive

Problem: So what was the verdict on CCC(Cc1c(I)cc(I)c(N)c1I)C(=O)O (stereo unspecified) in this test?
Solution: inactive

Problem: So what was the verdict on `C=C(C=O)[C@]1(O)C[C@@]2(C)C(=CC1=O)C=C[C@H](OC(=O)/C=C/C=C/[C@H](C)CC)[C@@H]2C` in this test?
Solution: active
